experiment: inhibitors of HIV-1 Env-driven cell-cell fusion, primary screen, HeLa-JRFL effector, CEM21 target cells, luciferase (AID 651610); settings: at 16.7 µM unless noted
About 3,900 (1.1%) of roughly 360,000 compounds were called active.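 How the source made its calls: active means mean replicate inhibition score of at least 50 and every replicate individually at or above 50; inconclusive means only one of the two criteria met; inactive means mean below 50 and not all replicates reaching 50.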 The sample as a whole holds a higher share of actives than the screen did.
Would you mind answering with one of these outcomes? active, inactive

Worked cases, answers included:
Compound smiles	Category
O=C(Nc1ccc(N2CCN(C(=O)c3ccccc3)CC2)c(Cl)c1)c1cccnc1	active
Cc1ccccc1N1CCN(C(=O)c2cccnc2)CC1	inactive

Test call for this compound, please: `O=C(Nc1ccc(N2CCN(C(=O)c3ccccc3)CC2)c(Cl)c1)c1ncn[nH]1` inactive

Hey, what did the test say about `CCN1C(=O)[C@H]2[C@@H](c3ccc(C(F)(F)F)cc3)N[C@]3(CCCN(Cc4ccc(Br)cc4)C3=O)[C@H]2C1=O` ? inactive

Tell me the recorded outcome of this test for `COC(=O)[C@]1(Cc2ccccc2)N[C@H](CN(C)S(=O)(=O)c2ccc(OC(F)(F)F)cc2)[C@@H]2C(=O)N(Cc3ccccc3)C(=O)[C@@H]21` . inactive

Fill in: this test's call for `COC(=O)[C@H](CC(C)C)NS(=O)(=O)c1c(F)cccc1F` is ___ inactive

Could you kindly confirm the outcome this assay logged for `CC(C)NC(=O)Nc1ccc2c(c1)C(=O)N([C@@H](C)CO)C[C@H](C)[C@H](CN(C)S(=O)(=O)c1cccs1)O2` ? inactive

Hello, I am checking results. What call was entered for `O=C(C[C@H]1CC[C@H]2[C@@H](COC[C@H](O)CN2CCC(F)(F)F)O1)N1CCC(Cc2ccccc2)CC1` ? inactive

What did the test return for `COCC#Cc1ccc2c(c1)O[C@H](CN(C)C(=O)C1CCOCC1)[C@@H](C)CN([C@@H](C)CO)S2(=O)=O` ? inactive
